Test system: K-562 leukemia
Procedure Summary: NCI tumour cell line growth inhibition, 48 h; in the data active means GI50 below about 0.43 µM; inactive means the rest
Labels: active, inactive

- CCOc1cc2c(Cl)ncnc2c(OCC)c1OCC: inactive
- O=c1/c(=C/c2ccco2)sc2nc3ccccc3n12: inactive
- O=C1CCCCN1CCCCC#Cc1ccccc1C#Cc1ccc([N+](=O)[O-])cc1: inactive
- O=C(/C(Br)=C/c1ccccc1)c1ccccc1: inactive
- CS(=O)(=O)c1ccc([C@H]2O[C@@H](CO)C[C@]2(O)c2ccc(S(C)(=O)=O)cc2)cc1: inactive
- CCC[CH2][Sn]1([CH2]CCC)[O]Cc2nc(C)ccc2[O]1: inactive
- Cn1c2ccccc2c2c(-c3ccccc3)[n+]3ccncc3nc21: inactive
- O=C(N/N=C/c1ccccc1O)c1ccccc1Nc1ccnc(C(F)(F)F)c1: inactive
- COC(=O)[C@]12CC[C@@H](C)[C@H](C)[C@@H]1C1=CC[C@@H]3[C@@]4(C)C/C(=N\O)[C@H](O)[C@@]5(C)COC(=C45)C[C@@]3(C)[C@]1(C)CC2: inactive
- CCN(CC)c1ccc(/C=C/c2ccc3cc(C)ccc3[n+]2CC)cc1: active
- Oc1ccc(CN2CCC(N3CCCCC3)CC2)c2cccnc12: inactive
- Cc1ccc(NC(=O)c2cccc(N(C)C)c2)cc1NC(=O)c1ccc(O)cc1: inactive
